- System: RARb homodimer (NR concentration 270 nM)
- test.details: PBM binding z-score (relative to random genomic background probes); higher = stronger binding; sequences stand for … in GC…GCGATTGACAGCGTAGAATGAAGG
Use label 1 when the recorded PBM binding z-score is no lower than 3; use label 0 when it is lower.

Take a look at these entries with their results.
CCGACTGGGGCAAGGTTAGCATAACGCACAGCCA	label 0
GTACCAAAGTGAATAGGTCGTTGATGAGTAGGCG	label 0
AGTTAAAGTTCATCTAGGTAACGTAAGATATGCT	label 1
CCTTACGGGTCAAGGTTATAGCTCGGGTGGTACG	label 1
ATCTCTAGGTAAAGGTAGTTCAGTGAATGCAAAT	label 0
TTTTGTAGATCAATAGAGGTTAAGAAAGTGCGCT	label 0
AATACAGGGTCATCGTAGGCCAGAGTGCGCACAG	label 1
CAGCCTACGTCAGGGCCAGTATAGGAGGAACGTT	label 0
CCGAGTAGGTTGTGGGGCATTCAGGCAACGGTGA	label 0
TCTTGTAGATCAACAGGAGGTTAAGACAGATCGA	label 0

Answer whether PBM binding z-score of "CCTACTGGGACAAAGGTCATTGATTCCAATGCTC" is greater than or equal to 3.
label 1

Answer whether PBM binding z-score of "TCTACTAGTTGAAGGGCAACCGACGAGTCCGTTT" is greater than or equal to 3.
label 0

Answer whether PBM binding z-score of "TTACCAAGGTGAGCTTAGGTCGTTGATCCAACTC" is greater than or equal to 3.
label 0

Answer whether PBM binding z-score of "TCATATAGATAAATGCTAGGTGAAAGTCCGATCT" is greater than or equal to 3.
label 0

Answer whether PBM binding z-score of "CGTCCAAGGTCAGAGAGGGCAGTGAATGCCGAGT" is greater than or equal to 3.
label 1

Answer whether PBM binding z-score of "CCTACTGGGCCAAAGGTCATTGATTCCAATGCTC" is greater than or equal to 3.
label 1

Hello, the source for this data is the supplement of paper PMC6555819, in case you need it.
